- tested.target: T1, cynomolgus galectin-10-His, YRT isoform (cynomolgus)
- T1 construct: also called cynoGal10-YRT; not shown: His tag
- T1 chain: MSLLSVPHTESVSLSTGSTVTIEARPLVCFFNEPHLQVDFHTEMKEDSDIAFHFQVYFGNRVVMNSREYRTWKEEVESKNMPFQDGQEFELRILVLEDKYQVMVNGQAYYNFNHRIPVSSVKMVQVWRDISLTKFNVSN
- method.notes: ELISA, coated antigen 0.5 ug/mL
reported.metric: pEC50
pEC50 here is simply -log10 of the concentration when that concentration is written in mol/L.

10A06 mouse IgG1 (antibody, V domains shown, VH and VL cloned in frame with mouse IgG1 constant domains; also called 10A06 mIgG1) VH: QVQLVESGGGLVQPGGSLRLSCAASGFTFGNYDMSWVRQAPGKGPEWVSDINSGGGSTYYADSVKGRFTISRDNAKNSLLLQMNSLKPEDTAVYYCATGYTGYYYWGQGTQVTVSS VL: QTVVTQEPSLSVSPGGTVTLTCGLSSGSVTSSNYPAWYQQTPGQAPRALIYSINSRHSGVPDRFSGSISGNKAALTITGAQAEDEADYYCTLYMGTGSNNVVFGGGTHLTVL    10.22
10B02 mouse IgG1 (antibody, V domains shown, VH and VL cloned in frame with mouse IgG1 constant domains; also called 10B02 mIgG1) VH: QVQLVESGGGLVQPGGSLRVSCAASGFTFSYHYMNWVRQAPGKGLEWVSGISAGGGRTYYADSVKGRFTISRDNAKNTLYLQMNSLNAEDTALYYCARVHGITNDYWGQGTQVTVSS VL: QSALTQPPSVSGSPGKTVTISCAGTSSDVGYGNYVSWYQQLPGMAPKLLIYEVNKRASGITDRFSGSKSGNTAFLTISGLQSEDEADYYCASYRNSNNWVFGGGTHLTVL    9.85
8H11 mouse IgG1 (antibody, V domains shown, VH and VL cloned in frame with mouse IgG1 constant domains; also called 8H11 mIgG1) VH: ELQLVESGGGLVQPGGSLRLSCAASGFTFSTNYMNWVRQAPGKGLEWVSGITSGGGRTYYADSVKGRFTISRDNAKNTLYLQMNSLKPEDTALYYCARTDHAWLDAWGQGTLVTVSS VL: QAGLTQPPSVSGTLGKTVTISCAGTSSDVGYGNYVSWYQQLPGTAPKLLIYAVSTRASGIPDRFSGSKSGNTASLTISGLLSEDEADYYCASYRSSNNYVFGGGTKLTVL    9.52

Short answer for 11F12 mouse IgG1 (antibody, V domains shown, VH and VL cloned in frame with mouse IgG1 constant domains; also called 11F12 mIgG1) VH: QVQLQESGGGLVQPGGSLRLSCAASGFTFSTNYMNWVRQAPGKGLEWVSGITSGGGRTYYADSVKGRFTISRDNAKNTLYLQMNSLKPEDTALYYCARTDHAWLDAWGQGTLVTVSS VL: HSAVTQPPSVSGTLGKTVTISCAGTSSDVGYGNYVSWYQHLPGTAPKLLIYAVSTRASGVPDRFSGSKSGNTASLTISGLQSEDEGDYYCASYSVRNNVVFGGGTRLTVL : pEC50 was 9.68
